test system: EKVX; assay: NCI tumour cell line growth inhibition, 48 h
Calls of active or inactive are those of the source. Rule as the data show it: active = GI50 up to about 1.1 µM and inactive = higher.
Use one of these outcomes when replying: true (1) for active, false (0) for inactive

Illustrative cases are given below, each with its answer.
# compound, label
data = [
    ("CCOC(=O)c1csc(CCCCCCc2nc(C(=O)OCC)cs2)n1", "false (0)"),
    ("OC(c1ccc(F)cc1)C(F)(F)c1nc2ccccc2o1 (stereo not drawn)", "false (0)"),
    ("O=[N+]([O-])c1ccc(/N=N/c2c(O)ccc3cc(S(=O)(=O)O)ccc23)cc1", "false (0)"),
]

Request: How was N=c1oc2cc(O)ccc2cc1C(=O)Nc1cccc2ccccc12 classified in this test?
Response: false (0)

Request: How was CC(C)(C)/N=C/N1C=Cc2nc3ccccc3cc2C1 classified in this test?
Response: false (0)

Request: How was Clc1cccc(Cl)c1C1SCC2=Nc3ccccc3CN21 (stereo not drawn) classified in this test?
Response: false (0)

Request: How was O=C1NC(=S)NC(=O)C1=Cc1ccc2ccccc2n1 classified in this test?
Response: false (0)

Request: How was CC1CC(c2ccc(Cl)c(Cl)c2)=Nc2ccccc2S1 (stereo not drawn) classified in this test?
Response: false (0)

Request: How was CSc1c(C#N)c(O)n(-c2ccc(C)cc2)c(=O)c1C#N classified in this test?
Response: false (0)

Request: How was N=C(N)NC(CC(=O)O)c1ccccc1 (stereo not drawn) classified in this test?
Response: false (0)

Request: How was COc1c2c(nc3ccccc13)-c1cc(C(CC(=O)OC(C)(C)C)C(=O)OC(C)C)c(CO)c(=O)n1C2 (stereo not drawn) classified in this test?
Response: false (0)

* * *

tested on: UACC-62; assay: NCI tumour cell line growth inhibition, 48 h
Counter-ions that a name gives are not always drawn. Active and inactive are the calls of the source. No stated cut-off is given here; in the data, active = GI50 up to about 1.1 µM and inactive = higher.
Entries and their GI50 values follow.

# molecule, result
data = [
    ("Cc1cc(NS(=O)(=O)c2ccc(Nc3c4ccccc4nc4ccc(C(=O)Nc5ccc(S(N)(=O)=O)cc5)cc34)cc2)no1", "> 100 µM (inactive)"),
    ("CC1=CC(=O)C(C)(C2=NC(C)(C)CO2)c2ccccc21 (configuration not stated)", "> 100 µM (inactive)"),
    ("CNNCc1ccc(C(=O)NC(C)C)cc1 [PROCARBAZINE HYDROCHLORIDE]", "366 µM (inactive)"),
    ("CN(C)C(=O)N(CCCl)N=O", "> 100 µM (inactive)"),
    ("CC(=O)NNc1nc(C)c(C(/C=C/c2ccc([N+](=O)[O-])cc2)=N/NC(N)=O)s1", "> 100 µM (inactive)"),
    ("COC(=O)c1ccc2cc(O)c(O)cc2c1", "26.2 µM (inactive)"),
    ("Nc1nc(Cl)c(N)c(NC23CC4CC(CC(C4)C2)C3)n1", "1.63 µM (inactive)"),
    ("NCCCCN(CCCN)Cc1ccc2ccccc2c1", "95.7 µM (inactive)"),
]

Request: Requested field: GI50. Item: CC(C)NC(=O)CN1CCN(C2=CC(=O)c3c(O)ccc(O)c3C2=O)CC1
Response: 5.18 µM (inactive)

Request: Requested field: GI50. Item: N#CCC(=O)N/N=C(\C(=O)Nc1ccc(Cl)c(Cl)c1)C1CN(c2ccccc2)N=C1N (configuration not stated)
Response: > 100 µM (inactive)

Request: Requested field: GI50. Item: CC1=C(O)C(=O)c2cn(C)cc2C1=O
Response: > 100 µM (inactive)

Request: Requested field: GI50. Item: COc1c(F)c(F)c(C(=O)/C=C2\Nc3ccccc3NC2=O)c(F)c1F
Response: > 10 µM (inactive)
